# Tested on: U2OS
# run description: normalized growth rate inhibition value (GR) relative to untreated cells (GR value (dimensionless, 1 = untreated growth)); higher = less growth inhibition
# experimental context: 0.316912 µM; 72 h
parameter: normalized growth rate inhibition value
Just the number, please, no unit attached.

Solved entries:
Item CC(C)NC[C@@H](C(=O)N1CCN(c2ncnc3c2[C@H](C)C[C@H]3O)CC1)c1ccc(Cl)cc1 with U2OS - normalized growth rate inhibition value?
0.945

Item Cc1nn(C)c(COc2ccc(N3CCN(S(=O)(=O)N(C)C)CC3)cc2)c1-c1cccc2c(CCCOc3cccc4ccccc34)c(C(=O)O)n(CCN3CCOCC3)c12 with U2OS - normalized growth rate inhibition value?
0.942

Item Cc1cc(C(C)Nc2ccccc2)c2nc(N3CCOCC3)cc(=O)n2c1 (centres undefined) with U2OS - normalized growth rate inhibition value?
1.02

Now, please, on to the next molecule.
Item NC(=O)Nc1cc(-c2cccc(F)c2)sc1C(=O)N[C@H]1CCCNC1 with U2OS - normalized growth rate inhibition value?
-0.126
